Tested on: MCF-7 human breast cancer cells
condition_details: read-out: Antiproliferative Activity IC50; MCF-7; 72 h; eight concentrations (0.001–50 mM [sic]); mean ± SEM; Table 5
Reported pIC50 by item:
The meaning of pIC50 here: minus log10 of the concentration in molar units.

COC(=O)C1=C(C(=O)OC)C(C2C(=O)N(c3cc(OC)c(OC)c(OC)c3)C2c2cccc3ccccc23)CC=C1 (centres unmarked) [22a]	3.85

Could you now look at the following compound, please?
The recorded pIC50 for entry COC(=O)C1=C(C(=O)OC)C(C2C(=O)N(c3cc(OC)c(OC)c(OC)c3)C2c2cccc3ccccc23)CC=C1 (centres unmarked) [22b] equals 5.01

Origin of values: paper PMC10385824
